Ref: PubChem BioAssay (NCI)

Tested on: MDA-MB-468 breast
Assay: NCI-60 one-dose screen, 48 h (100 = growth as untreated, 0 = no growth, -100 = all killed)
Conditions: 10 µM unless noted
Protocol: Growth inhibition of the MDA-MB-468 human Breast tumor cell line is measured as a screen for anti-cancer activity. Cells are grown in 96 well plates and exposed to the test compound for 48 hours. Compounds are tested at a single concentration, which is 10^-5 M for most compounds. The reported endpoint is percent growth (GI% or GIPRCNT), where numbers from 0 - 100% represent growth inhibition, and numbers from -100% - 0 represent cell death. […]
Compounds without any hit were thinned out: in the full panel of roughly 83,000, 20% have a hit.
Use 10% as the dividing line for growth, with the line itself on the rule met side and lower values as rule not met.

{"compound": "COC(=O)c1nc(-c2ccc(C)cc2)oc1S(=O)(=O)c1ccc(Cl)cc1", "class_assignment": "rule met"}
{"compound": "CCCCOc1ccc(/C=N/Nc2cc(C)nc3ccc(Cl)cc23)cc1", "class_assignment": "rule not met"}
{"compound": "Cc1cc(C(C)(C)C)cc(C)c1Br", "class_assignment": "rule met"}
{"compound": "CN1CC(c2ccc(Br)cc2)C(C(=O)c2ccc(Br)cc2)C12C(=O)Nc1ccccc12 (configuration not stated)", "class_assignment": "rule met"}
{"compound": "CS(=O)(=O)Nc1cncc(-c2ccc3ncnc(Nc4ccc(F)c(Cl)c4)c3c2)c1", "class_assignment": "rule not met"}
{"compound": "COc1ccc(C(=O)Nc2ncc(Cc3ccc(F)cc3)s2)cc1", "class_assignment": "rule met"}
{"compound": "O=C(C[Si](CC(=O)c1cccc(C(F)(F)F)c1)CC(=O)c1cccc(C(F)(F)F)c1)c1cccc(C(F)(F)F)c1", "class_assignment": "rule met"}
{"compound": "Nc1ccc2cc(S(=O)(=O)O)cc(O)c2c1N=Nc1ccc(F)cc1", "class_assignment": "rule met"}
{"compound": "Cc1cc(-c2ccc(N=Nc3c(C)nn(-c4ccc(S(=O)(=O)O)cc4)c3O)c(C)c2)ccc1N=Nc1ccc(O)c(C(=O)O)c1", "class_assignment": "rule met"}
{"compound": "CCN1CCN(c2ccc(NC(=O)Nc3ccc4c(ccn4-c4ccnc(C(=O)NC)c4)c3)cc2C(F)(F)F)CC1", "class_assignment": "rule met"}
{"compound": "CNC(=O)c1cc(-c2ccc(NC(=S)Nc3cc(C(F)(F)F)cc(C(F)(F)F)c3)cc2)nc2cccnc12", "class_assignment": "rule not met"}
{"compound": "O=C1NC(=O)/C(=C/c2c(-c3ccccc3)nc3sc(COc4ccccc4)nn23)S1", "class_assignment": "rule met"}
{"compound": "COc1cc2oc(-c3cccc(NC(=O)[C@@H](N)C(C)C)c3)cc(=O)c2c(OC)c1OC", "class_assignment": "rule met"}
{"compound": "O=Nc1c(O)c(Cl)cc2ccccc12", "class_assignment": "rule not met"}
{"compound": "Cc1cc(=O)oc2cc(OCCCOc3ccc(/C=C/C(=O)Nc4ccc(Cl)cc4)cc3)ccc12", "class_assignment": "rule met"}
{"compound": "Cn1ccnc1C(=O)/C=C/c1ccc(CC(=O)Nc2ccc(C(F)(F)F)cc2)cc1", "class_assignment": "rule not met"}
{"compound": "COc1cc(/C=N/NC(=O)c2cnn3c2NC(c2ccccc2)C3)ccc1Oc1ccccc1 (configuration not stated)", "class_assignment": "rule not met"}
{"compound": "CC12O[C@H](C[C@@H](O)[C@H]1O)n1c3ccccc3c3c4c(c5c6ccccc6n2c5c31)C(=O)N(CCCN)C4=O", "class_assignment": "rule met"}
{"compound": "Cc1cc2nc3c4cc([N+](=O)[O-])ccc4n(CCN(C)C)c3nc2cc1C", "class_assignment": "rule not met"}
{"compound": "CN1CCN(Cc2ccc(NC(=O)c3cc(C#Cc4cnc(N)c5ncccc45)n(C)n3)cc2C(F)(F)F)CC1", "class_assignment": "rule met"}
{"compound": "COc1ccc(-c2cc(/C=C3\\C(=O)Nc4cc(Cl)ccc43)[nH]n2)cc1", "class_assignment": "rule met"}
{"compound": "Cc1ccc(OCCn2c(C)nn(-c3ccc(Cl)cc3)c2=O)cc1", "class_assignment": "rule met"}
{"compound": "Cc1ccc(-c2cc(-c3ccc(Cl)cc3)nc(NC(=O)c3cccnc3)n2)cc1", "class_assignment": "rule met"}
{"compound": "CC(=O)Nc1nc2c(s1)C1=CC[C@H]3[C@@H]4CC[C@H](C(C)=O)[C@@]4(C)CC[C@@H]3[C@@]1(C)CC2", "class_assignment": "rule met"}
{"compound": "NS(=O)(=O)c1ccc(Nc2nc(N/N=C/c3ccc(F)cc3)nc(Nc3ccccc3)n2)cc1", "class_assignment": "rule met"}
{"compound": "O=C=NC(c1ccccc1)(c1ccccc1)c1ccccc1", "class_assignment": "rule met"}
{"compound": "CC(C)[C@]12O[C@H]1[C@@H]1O[C@]13[C@]1(O[C@H]1C[C@H]1C4=C(CC[C@@]13C)C(=O)OC4)[C@@H]2OC(=O)CN(C)C", "class_assignment": "rule not met"}
